Measured values drawn from paper PMC4403932 for this set.

TESTED SYSTEM: CREBBP (Homo sapiens, UniProt Q92793)
Construct: small thermal shits (1.0–1.3 °C) for the bromodomain of CREBBP; made in house
Sequence (Q92793 1085-1192 limits assumed): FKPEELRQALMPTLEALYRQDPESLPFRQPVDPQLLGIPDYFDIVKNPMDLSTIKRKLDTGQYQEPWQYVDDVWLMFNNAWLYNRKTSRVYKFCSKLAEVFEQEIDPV
TEST NAME: Protein stability (thermal) shift assay, CREBBP
Type: binding
PROTOCOL CONDITIONS: compound 10 μM, protein 2 μM; average of triplicate; read-out: ΔTm Shift, CREBBP
Experimental: Thermal melting experiments were carried out using an Mx3005p real time PCR machine (Stratagene). Proteins were buffered in 10 mM HEPES, pH 7.5, 500 mM NaCl and assayed in a 96-well plate at a final concentration of 2 μM in 20 μL volume. […] SYPRO Orange (Molecular Probes) was added as a fluorescence probe at a dilution of 1 in 1000. […] The temperature was raised with a step of 3 °C per minute from 25 to 96 °C, and fluorescence readings were taken at each interval. […]
ENDPOINT NAME: ΔTm at 10 µM
Include the unit after the number when you answer.

{"SMILES ENTRY": "COc1cc(COc2ccc(-c3nc(N)nc4[nH]cnc34)cc2Cl)cc(OC)c1", "ΔTm at 10 µM": "-0.04 °C"}
{"SMILES ENTRY": "COc1cccc(OC(C)C)c1-c1nc(N)nc2[nH]cnc12", "ΔTm at 10 µM": "-0.1 °C"}
{"SMILES ENTRY": "CCCCOc1cc(Br)cc(-c2nc(N)nc3[nH]cnc23)c1", "ΔTm at 10 µM": "1.7 °C"}
{"SMILES ENTRY": "Nc1nc(-c2ccc3c(c2)OCCO3)c2nc[nH]c2n1", "ΔTm at 10 µM": "-1.5 °C"}
{"SMILES ENTRY": "COc1ccc(Br)cc1-c1nc(N)nc2c1ncn2C", "ΔTm at 10 µM": "0.74 °C"}
{"SMILES ENTRY": "COc1ccc(Br)cc1-c1nc(O)nc2[nH]cnc12", "ΔTm at 10 µM": "0.6 °C"}
{"SMILES ENTRY": "Cn1cnc2c(-c3cccc(OCc4ccc(Cl)cc4)c3)nc(N)nc21", "ΔTm at 10 µM": "0.9 °C"}
{"SMILES ENTRY": "Cn1cnc2c(Br)nc(N)nc21", "ΔTm at 10 µM": "3.1 °C"}
{"SMILES ENTRY": "COc1cccc(OCC(C)C)c1-c1nc(N)nc2[nH]cnc12", "ΔTm at 10 µM": "-0.4 °C"}
{"SMILES ENTRY": "Nc1nc(-c2ccc(OCc3ccccc3)c(Cl)c2)c2nc[nH]c2n1", "ΔTm at 10 µM": "0.9 °C"}

Q: Look up ΔTm at 10 µM for this compound: Nc1nc(-c2cc(Br)cc3c2OCC3)c2nc[nH]c2n1
Ans: 3.6 °C

Q: Recorded ΔTm at 10 µM of COc1ccc(Br)cc1-c1nc(Cl)nc2[nH]cnc12 , please.
Ans: 2.5 °C

Q: For COc1ccc(Br)cc1-c1nc(N)nc2c1ncn2CC(C)=O , what is its reported ΔTm at 10 µM?
Ans: -0.07 °C

Q: // lookup ΔTm at 10 µM for COc1ccc(Cl)cc1-c1nc(O)nc2[nH]cnc12
Ans: 1 °C

Q: Query (compound): CCCCOc1cc(Br)cc(-c2nc(N)nc3c2ncn3C)c1 ; field requested: ΔTm at 10 µM
Ans: 1.3 °C
